Hi there, I'd appreciate the recorded protein stability index for every entry that follows.
B1: FUT8 (parent)
chain: YPSYKVREKIETVKYPTYPEAEK

Variants of: B1
Experiment: protein stability index of a GFP-peptide fusion (GPS, HEK-293T) (PSI 1-6); higher = more stable;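 further: lentivirally expressed fusions sorted by FACS into six bins by GFP to DsRed ratio, PSI derived from sequencing read proportions per bin multiplied by bin number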
Details: c terminus: native
Quick one: just the number, no unit, thanks!

Query: // query protein stability index value for entry `Y1D`
Result: 5.3

Query: Fill blank: measured protein stability index of the variant `T12R` is ____.
Result: 4.05

Query: Which protein stability index value is on record for `P19S` ?
Result: 3.94

Query: Reported protein stability index, variant `E20W` : ____
Result: 2.9

Query: protein stability index; subject: `E11C`
Result: 3.91

Query: Please look up its protein stability index: `S3M`
Result: 4.08

Query: Would you mind telling me what protein stability index value was observed for `K5P` ?
Result: 4.61

Query: # query: protein stability index of entry `E11Q`
Result: 4.27

Query: Which value of protein stability index has been reported for `R7T` in the records?
Result: 3.96

Query: Dear colleague, I am looking for the recorded protein stability index of the following variant: `E8H`
Result: 4.28

Query: Item under review: `E11N` . Reported protein stability index?
Result: 3.1

Query: # input variant: `Y1T` ; wanted: its protein stability index
Result: 4.92

Query: Which value of protein stability index has been reported for `K9G` in the records?
Result: 4.12

Query: Consider the variant `T17C` and give its measured protein stability index.
Result: 3.8

Query: Given `K9V` , state its recorded protein stability index.
Result: 3.23

Query: // query protein stability index value for entry `K9F`
Result: 2.64

Query: Give the measured protein stability index of `P16G` .
Result: 4.28

Query: Look at this variant and give its reported protein stability index. `R7S`
Result: 4.49

Query: Please look up its protein stability index: `E8Y`
Result: 2.28

Query: Can you look up the measured protein stability index of `P2F` for me?
Result: 3.51

Query: Which protein stability index is reported for this variant? `A21W`
Result: 4.21

Query: I have this variant here, `T17H` , and I need its recorded protein stability index.
Result: 4.41
